Measured values drawn from patent US20240293570A1 for this set.

protocol: Stability (placement) test of ADCs at 40° C. in dark for 14 days, DAR and polymer content
Format: physicochemical
reported_conditions: Day 7, 40° C. in dark
*1 amine or outer side, *2 acyl side, *3 side chain or, on linkers, in order; H or OH if unused. Where a SMILES comes first, the peptide text is derived from it. [ ]: non-standard residue; d: D form. The star is where a group is joined. Exatecan = CC[C@@]1(O)C(=O)OCc2c1cc1n(c2=O)Cc2c-1nc1cc(F)c(C)c3c1c2[C@@H](N*)CC3; MaleimidoPEG4propanoyl = O=C1C=CC(=O)N1CCOCCOCCOCCOCCC(=O)*; X2 = CO[C@@H]([C@H]1CCCN1[*:1])[C@@H](C)C(=O)[*:2]; Propanoyl(3-maleimido) = O=C1C=CC(=O)N1CCC(=O)*; Dil = CC[C@H](C)[C@H](NC)[C@@H](CC(=O)O)OC; X1 = O=C(CN1CCOCCN([*:1])CCOCC1)[*:2]; PABC = O=C(OCc1ccc(N[*:1])cc1)[*:2]; NHCH2OCH2CO = O=C(COCN[*:1])[*:2]; X3 = C[C@@H](N*)[C@@H](O)c1ccccc1; NMeV = CN[C@H](C(=O)O)C(C)C
Mark Y only for Polymer content (%) values smaller than 1%; exact matches and larger values are N.

Field: example entries. Status: answers known.
CC[C@@]1(O)C(=O)OCc2c1cc1n(c2=O)Cc2c-1nc1cc(F)c(C)c3c1c2[C@@H](NC(=O)COCNC(=O)CNC(=O)[C@H](Cc1ccccc1)NC(=O)CNC(=O)CNC(=O)CN1CCOCCN(C(=O)CCN2C(=O)C=CC2=O)CCOCC1)CC3 [Example 22] ({Propanoyl(3-maleimido)}-[X1]GGFG[NHCH2OCH2CO]-Exatecan) : Y
C=C1C[C@@H]2CC[C@@]34C[C@H]5OC6C(O[C@H]7CC[C@H](CC(=O)C[C@@H]8[C@@H](OC)[C@@H](C[C@H](O)CNC(=O)CNC(=O)[C@H](Cc9ccccc9)NC(=O)CNC(=O)CNC(=O)CN9CCOCCOCCN(C(=O)CCCC%10C(=O)C=CC%10=O)CCOCCOCC9)O[C@H]8C[C@H]8O[C@@H](CC[C@@H]1O2)C[C@@H](C)C8=C)O[C@@H]7[C@@H]6O3)[C@H]5O4 : N
C=C1C[C@@H]2CC[C@@]34C[C@H]5OC6C(O[C@H]7CC[C@H](CC(=O)C[C@@H]8[C@@H](OC)[C@@H](C[C@H](O)CNC(=O)CNC(=O)[C@H](Cc9ccccc9)NC(=O)CNC(=O)CN9CCOCCOCCN(C(=O)CCCC%10C(=O)C=CC%10=O)CCOCCOCC9)O[C@H]8C[C@H]8O[C@@H](CC[C@@H]1O2)C[C@@H](C)C8=C)O[C@@H]7[C@@H]6O3)[C@H]5O4 : N
CCc1c2c(nc3ccc(O)cc13)-c1cc3c(c(=O)n1C2)CCC(=O)[C@@]3(CC)OC(=O)N(C)CCN(C)C(=O)COCNC(=O)CNC(=O)[C@H](Cc1ccccc1)NC(=O)CNC(=O)CNC(=O)CN1CCOCCN(C(=O)CCN2C(=O)C=CC2=O)CCOCC1 : Y
CC[C@H](C)[C@@H]([C@@H](CC(=O)N1CCC[C@@H]1[C@H](OC)[C@@H](C)C(=O)N[C@H](C)[C@@H](O)c1ccccc1)OC)N(C)C(=O)[C@@H](NC(=O)[C@H](C(C)C)N(C)C(=O)OCc1ccc(NC(=O)CNC(=O)[C@H](Cc2ccccc2)NC(=O)CNC(=O)CNC(=O)CN2CCOCCN(C(=O)CCOCCOCCOCCOCCN3C(=O)C=CC3=O)CCOCC2)cc1)C(C)C [Example 85] (MaleimidoPEG4propanoyl-[X1]GGFG[PABC][NMeV]V[Dil][X2]-X3) : N

Q: # strict comparison: is reported Polymer content (%) < 1%? input = C=C1C[C@@H]2CC[C@@]34C[C@H]5OC6C(O[C@H]7CC[C@H](CC(=O)C[C@@H]8[C@@H](OC)[C@@H](C[C@H](O)CNC(=O)CNC(=O)[C@H](Cc9ccccc9)NC(=O)CNC(=O)CNC(=O)CN9CCOCCN(C(=O)CCN%10C(=O)C=CC%10=O)CCOCC9)O[C@H]8C[C@H]8O[C@@H](CC[C@@H]1O2)C[C@@H](C)C8=C)O[C@@H]7[C@@H]6O3)[C@H]5O4
Ans: Y
